Ref: PubChem BioAssay AID1136

molecular target: Alkaline phosphatase, tissue-nonspecific isozyme (Homo sapiens) (UniProt P05186); assay: TNAP activators at high phosphate acceptor level, primary screen, biochemical, luminescence, uHTS (AID 1136); conditions: purified TNAP, CDP-star luminescence, 1 M DEA, 30 min; at 20 µM; stronger effect = higher value; 0 = EDTA background, 1 = DMSO-only activity
Sequence (P05186 whole entry, looked up): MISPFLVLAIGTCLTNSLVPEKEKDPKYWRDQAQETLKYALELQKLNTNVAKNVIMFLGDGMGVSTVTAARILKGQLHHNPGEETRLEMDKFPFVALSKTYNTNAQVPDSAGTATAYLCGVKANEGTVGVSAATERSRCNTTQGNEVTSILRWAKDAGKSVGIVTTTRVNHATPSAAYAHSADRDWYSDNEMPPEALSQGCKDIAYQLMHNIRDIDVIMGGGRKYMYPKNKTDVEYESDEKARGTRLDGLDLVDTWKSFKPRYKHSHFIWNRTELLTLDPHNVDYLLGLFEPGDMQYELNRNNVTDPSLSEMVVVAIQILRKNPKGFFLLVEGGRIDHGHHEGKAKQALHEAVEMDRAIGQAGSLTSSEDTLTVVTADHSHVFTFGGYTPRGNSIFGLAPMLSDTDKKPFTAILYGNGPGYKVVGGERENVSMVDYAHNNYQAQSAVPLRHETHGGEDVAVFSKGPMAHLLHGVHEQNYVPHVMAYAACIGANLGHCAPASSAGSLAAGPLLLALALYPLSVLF
Out of some 200,000 compounds screened, fewer than 10 were called active. These entries were drawn from the full list.
Measured attribute: activation factor
Note: the reply should be a number with no unit written.

(Q) Could you share which activation factor value was measured for Cc1ccc2[nH]c(C(=O)O)c(NC(=O)c3ccccc3[N+](=O)[O-])c2c1 ?
(A) 1

(Q) Would you mind doing O=C(CCl)NNc1cccc(Cl)n1 as well?
(A) 1

(Q) Would you mind doing CCCCC(CC)CNC(=O)C(=O)C1C(=O)Nc2ccccc21 (stereo unspecified) as well?
(A) 1

(Q) Would you mind doing CCCCC(=O)NCc1ccc(F)cc1 as well?
(A) 1.1

(Q) Would you mind doing CCN(CC)c1ccc2c(Nc3ccccc3)c(C=O)c(=O)oc2c1 as well?
(A) 1

(Q) Would you mind doing C=CCc1ccc(OCC(O)CN2CCN(Cc3ccccc3)CC2)c(OC)c1 (stereo unspecified) as well?
(A) 1

(Q) Would you mind doing Cc1cc(C)c(S(=O)(=O)N2CCOCC2)cc1C as well?
(A) 1

(Q) Would you mind doing O=C(NNC(=S)NCc1ccco1)C(c1ccccc1)c1ccccc1 as well?
(A) 1

(Q) Would you mind doing COC(=O)c1cc(NC(=O)Cc2ccccc2[N+](=O)[O-])ccc1Cl as well?
(A) 1

(Q) Would you mind doing CCN(CC)c1ccc(C(=O)N/N=C(\C)c2cccc(OC)c2)cc1 as well?
(A) 1

(Q) Would you mind doing Cn1cccc1/C=C1\SC(=O)N(CC(=O)Nc2ccc(F)cc2)C1=O as well?
(A) 1.1

(Q) Would you mind doing Cc1ccc(S(=O)(=O)NC(=O)COc2ccccc2C)cc1 as well?
(A) 1

(Q) Would you mind doing NC1=C([N+](=O)[O-])C(c2ccccc2)C2=C(CCCC2=O)O1 (stereo unspecified) as well?
(A) 1

(Q) Would you mind doing C=C(C)C1CC=C(C)/C(=N/NC(=O)CCCNc2cccc(C)c2)C1 (stereo unspecified) as well?
(A) 1

(Q) Would you mind doing Nc1nc(NC(=O)/C=C/c2ccccc2)nn1-c1ccccc1 as well?
(A) 1

(Q) Would you mind doing COc1cc(OC)nc(S(C)(=O)=O)n1 as well?
(A) 1

(Q) Would you mind doing CCOc1ccc(N2C(=O)CN(c3cccc4ccccc34)C2=S)cc1 as well?
(A) 1.1

(Q) Would you mind doing COc1ccc(/C=N/NC(=O)c2ccncc2)cc1CN1CCCc2ccccc21 as well?
(A) 1

(Q) Would you mind doing COc1ccc(C(=O)Nc2c(Cl)cc(Cl)cc2C(=O)N2CCC(C)CC2)cc1 as well?
(A) 1

(Q) Would you mind doing CC1=CC2=NC(=O)CC(C)(C(=O)N(CC(=O)NC(C)(C)C)Cc3ccccc3)N2C=C1 (stereo unspecified) as well?
(A) 1.1

(Q) Would you mind doing CN1CCN(c2ccc(NC(=O)c3ccc4c(c3)OCCO4)cc2Cl)CC1 as well?
(A) 1.1

(Q) Would you mind doing Cc1ccccc1CC1(CO)CCCN(Cc2ccc3c(c2)OCCO3)C1 (stereo unspecified) as well?
(A) 1.1

(Q) Would you mind doing COc1ccc(C(=O)NC(=S)Nc2ccc(Cl)cn2)cc1OC as well?
(A) 1.1

(Q) Would you mind doing Cc1ccc(S(=O)(=O)N(CC(=O)NN=C2CCN(C)CC2)c2ccc(F)cc2)cc1 as well?
(A) 1

(Q) Would you mind doing Cc1cc(SCC(=O)NCCN2C(=O)CSC2=O)nc2ccccc12 as well?
(A) 1

(Q) Would you mind doing CC1CCCN(S(=O)(=O)c2ccc(N(C(=O)c3cnccn3)C(C(=O)NC3CCCCC3)c3cccs3)cc2)C1 (stereo unspecified) as well?
(A) 0.9

(Q) Would you mind doing COc1ccc(-c2nn(-c3ccccc3)cc2CN2CCCO2)c(F)c1 as well?
(A) 1.1

(Q) Would you mind doing COC(=O)C1CCN(CC(N)=O)CC1 as well?
(A) 1.1

(Q) Would you mind doing O=C(CN1C2=NCCN2c2ccccc21)c1cccs1 as well?
(A) 1.1

(Q) Would you mind doing CCCNS(=O)(=O)c1ccc(CCC(=O)N2CCCC2)cc1 as well?
(A) 1.1

(Q) Would you mind doing C=CCC1(CC=C)CCCN1C(=O)CC1C(=O)NCCN1Cc1ccccc1OC (stereo unspecified) as well?
(A) 1

(Q) Would you mind doing Clc1cccc(CN2COc3c(cc(Cl)c4cccnc34)C2)c1 as well?
(A) 1.1

(Q) Would you mind doing CC(CC(=O)N1CCN(c2ccccc2)CC1)c1ccccc1 (stereo unspecified) as well?
(A) 1

(Q) Would you mind doing CCOC(=O)C1=NOC(Cn2cc(C(C)=O)c(=O)[nH]c2=O)C1 (stereo unspecified) as well?
(A) 1

(Q) Would you mind doing C=CCN(C(=O)c1cc(C)cc(C)c1)C1(C(=O)Nc2ccccc2)CCN(C(C)C)CC1 as well?
(A) 1

(Q) Would you mind doing CN(C)c1ccc(/C=N\S(=O)(=O)c2ccccc2)cc1 as well?
(A) 1

(Q) Would you mind doing CCOC(=O)C(NC(C)=O)C(=O)Nc1ccc(OC)cc1 (stereo unspecified) as well?
(A) 1.1

(Q) Would you mind doing Cn1ncc(N2CCN(S(=O)(=O)c3ccc(Br)cc3)CC2)c(Cl)c1=O as well?
(A) 1.1

(Q) Would you mind doing C/C(=N/NC(=O)CCc1ccccc1)c1ccco1 as well?
(A) 1

(Q) Would you mind doing COc1ccc(C(=O)C[n+]2ccc(C)cc2)cc1 as well?
(A) 1.1

(Q) Would you mind doing O=C1OC(/C=C/c2ccccc2)=NC/1=C/c1ccco1 as well?
(A) 1

(Q) Would you mind doing O=C(CN1CCN(Cc2ccc(F)cc2Cl)C1=O)NCc1cccs1 as well?
(A) 1.1

(Q) Would you mind doing Cc1nc([N+](=O)[O-])nn1C12CC3CC(CC(Br)(C3)C1)C2 as well?
(A) 1

(Q) Would you mind doing Cc1cccc(Nc2nc3c(S(=O)(=O)c4ccccc4)nnn3c3ccccc23)c1C as well?
(A) 1.1

(Q) Would you mind doing Cc1cccc(NC(=O)CN2C(=O)c3ccccc3C2=O)c1C as well?
(A) 1

(Q) Would you mind doing COc1ccc(N2C(=O)CC(Nc3ccc(F)cc3)C2=O)c([N+](=O)[O-])c1 (stereo unspecified) as well?
(A) 1
